# selectivity ratio values compiled below
# assay explanation: in vitro
# settings: human, MT4 cells, mock-infected (CC50) and HIV1 3B infected (EC50)
# Description: Selectivity index, ratio of CC50 for mock-infected human MT4 cells to EC50 for HIV1 3B infected in human MT4 cells
Structures can show the parent of a compound that is named as a salt.

{"molecule": "CC(C)Nc1cccnc1N1CCN(C(=O)c2cc3cc(NS(C)(=O)=O)ccc3[nH]2)CC1 [DELAVIRDINE MESYLATE]", "selectivity ratio": "> 67"}
{"molecule": "Cc1cc(C#N)cc(C)c1Oc1cc(Nc2ccc(C#N)cc2)ncc1C(=O)NCC1CC1", "selectivity ratio": "≥ 175"}
{"molecule": "Nc1ccn([C@@H]2CS[C@H](CO)O2)c(=O)n1 [LAMIVUDINE]", "selectivity ratio": "> 39"}
